Where these numbers come from: ChEMBL document CHEMBL4184155

Record form. Attribute: Activity. Fill in for each entry.
Assay: Antioxidant activity assessed as Trolox equivalents of photolysis-induced superoxide anion scavenging activity using CYPMPO spin trap by ESR spectroscopic method
Format: functional
Numeric answer only, unit equiv assumed.

I am curious: what Activity value has been reported for `Oc1ccc(/C=C/c2cc(O)cc(O)c2)cc1` ? 0.4

Activity lookup needed for `COc1cc(/C=C/c2ccc(OC)c(OC)c2)cc(OC)c1` , thanks. -0

Requested field: Activity. Item: `Oc1cc(O)cc(/C=C/c2ccc(O)c(O)c2)c1` 1.86

Please give the measured Activity for this molecule: `Oc1cc(O)cc(/C=C/c2ccc(O)cc2O)c1` 0.45

Activity lookup needed for `COc1cc(/C=C/c2ccc(O)cc2)cc(OC)c1` , thanks. 0.42

Look up Activity for this molecule: `COc1ccc(/C=C/c2cc(O)cc(O)c2)cc1O` 0.84
